Data origin, for the record: paper PMC12332266

# System: hiPSC-CM (iCell Cardiomyocytes^2)
# Test Protocol: RTCA CardioECR assessment (impedance and electrophysiology parameters)
# Test Conditions: hiPSC-CM, 72-hour treatment; lowest concentration causing at least 20% change from baseline
Counter-ions that a name gives are not always drawn.
Assay Readout: Beating rate (BR) MEC (µM)

[[record]]
compound = "CCN(CC)CCNC(=O)c1c(C)[nH]c(/C=C2\\C(=O)Nc3ccc(F)cc32)c1C [Sunitinib]"
system_name = "hiPSC-CM (iCell Cardiomyocytes^2)"
units_symbol = "µM"
numeric_readout = 1

[[record]]
compound = "CC(C)C[C@H](NC(=O)[C@H](CCc1ccccc1)NC(=O)CN1CCOCC1)C(=O)N[C@@H](Cc1ccccc1)C(=O)N[C@@H](CC(C)C)C(=O)[C@@]1(C)CO1 [Carfilzomib]"
system_name = "hiPSC-CM (iCell Cardiomyocytes^2)"
units_symbol = "µM"
numeric_readout = 0.3

[[record]]
compound = "CC(C)C[C@H](NC(=O)CNC(=O)c1cc(Cl)ccc1Cl)B1OC(=O)C(CC(=O)O)(CC(=O)O)O1 [Ixazomib Citrate]"
system_name = "hiPSC-CM (iCell Cardiomyocytes^2)"
units_symbol = "µM"
numeric_readout = 0.03

